This collection of values is drawn from patent US20260083714A1.

# assay-summary: Plasma levels of Compound 1 over 72 h, suspension versus tablet, fasted or fed, in healthy volunteers
# Format: in vivo
# setup-conditions: human, oral, 100 mg, 100 mg tablet, fasted, 24 h post-dose, read-out: Plasma level, Mean
property-measured: concentration at 24 h (ng/mL)

NC(=O)N1CCC[C@@H](N(C(=O)NCc2ccc(OC(F)(F)F)cc2F)C2CC2)C1 [Cpd 1]    324

====

# assay-summary: Plasma levels of Compound 1 over 24 hours after 14 days of suspension administration in healthy volunteers
# Type: in vivo
# setup-conditions: human, oral, 75 mg BID suspension, 16 h post-dose
property-measured: concentration at 16 h (ng/mL)

NC(=O)N1CCC[C@@H](N(C(=O)NCc2ccc(OC(F)(F)F)cc2F)C2CC2)C1 [Cpd 1]    1850
